Provenance of the data: the supplement of paper PMC6755084

B1: F1*; the commonest letter at each place (parent)
chain: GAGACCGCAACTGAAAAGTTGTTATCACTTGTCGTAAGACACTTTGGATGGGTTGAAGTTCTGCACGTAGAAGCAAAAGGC

Variants of: B1
PROCEDURE SUMMARY: fraction ligated after 30 min (ligated reads / total reads); higher = more ligase activity
TEST CONTEXT: with F1*sub RNA substrate (template-directed ligation), 42 °C
Assign 1.0 to entries whose fraction ligated meets or exceeds 0.8; assign 0.0 to the rest.

These recorded examples may help you get a feel for the data.
| MUTANT CODE | ANSWER LABEL |
| --- | --- |
| A36C G38A | 1.0 |
| T29A A41T | 1.0 |
| T23G C42G | 1.0 |
| T30A C33A | 1.0 |
| T25G T30A | 0.0 |
| T43C G46T | 0.0 |
| T29G A57G | 0.0 |
| T30G G50C | 0.0 |
| A24T G31T | 0.0 |
| G55A A56C A57T | 0.0 |

Q. Is it the case that T25G T44A has fraction ligated reaching or exceeding 0.8?
A. 0.0

Q. Also A37G T44C ?
A. 1.0

Q. Now consider A24T A57C .
A. 0.0

Q. Please do the same for T45A T49A as well.
A. 0.0

Q. Do the same for A27T C40T please
A. 1.0

Q. Same for T32A C42T
A. 1.0

Q. # iterate: C33T T49C
A. 0.0

Q. Another variant to check: C28T G31C
A. 1.0

Q. Record: C42A
A. 1.0

Q. Queued: A39G C40A
A. 1.0

Q. Repeat for the following variant: C28G A57C
A. 0.0

Q. Now consider T23C G46T .
A. 0.0

Q. Then T30C G50C ?
A. 0.0

Q. Also check A37G A39G
A. 1.0

Q. Another variant to check: T23C
A. 1.0

Q. Then this variant: G38C C42T
A. 1.0

Q. # repeat for T29G C42T
A. 1.0
